Measured values drawn from paper PMC6978347 for this set.

ratio to parent values by entry
B1: AtNBR1^1–94 (AtNBR1–PB1) [Arabidopsis thaliana] / MBP-tagged wild-type AtNBR1–PB1^1–94 [Arabidopsis thaliana] (parent)
chain 1: MESTANALVVKVSYGGVLRRFRVPVKANGQLDLEMAGLKEKIAALFNLSADAELSLTYSDEDGDVVALVDDNDLFDVTNQRLKFLKINVNAGVS
chain 2: B1 chain 1

Variants of: B1
TEST: pull-down (MBP pulldown, band quantification)
TEST CONTEXT: with MBP-tagged wild-type AtNBR1–PB1^1–94 [Arabidopsis thaliana];; read off a plot
ENDPOINT: ratio to parent

| POLYMER SEQUENCE | RESULT |
| --- | --- |
| chain 1 MESTANALVVKVSYGGVLAAFRVPVKANGQLDLEMAGLKEKIAALFNLSADAELSLTYSDEDGDVVALVDDNDLFDVTNQRLKFLKINVNAGVS | 0.01 |
| chain 1 MESTANALVVAVSYGGVLRRFRVPVKANGQLDLEMAGLKEKIAALFNLSADAELSLTYSAEDGDVVALVDDNDLFDVTNQRLKFLKINVNAGVS | 0.04 |
| chain 1 MESTANALVVAVSYGGVLRRFRVPVKANGQLDLEMAGLKEKIAALFNLSADAELSLTYSDEDGDVVALVDDNDLFDVTNQRLKFLKINVNAGVS | 0.32 |
| chain 1 MESTANALVVKVSYGGVLRRFRVPVKANGQLDLEMAGLKEKIAALFNLSADAELSLTYSDEDGAVVALVDDNDLFDVTNQRLKFLKINVNAGVS | 0.27 |
| chain 1 MESTANALVVKVSYGGVLRRFRVPVKANGQLDLEMAGLKEKIAALFNLSADAELSLTYSAEAGDVVALVDDNDLFDVTNQRLKFLKINVNAGVS | 0.06 |
| chain 1 MESTANALVVKVSYGGVLRRFRVPVKANGQLDLEMAGLKEKIAALFNLSADAELSLTYSDADGDVVALVDDNDLFDVTNQRLKFLKINVNAGVS | 0.22 |
